log10(MIC) by entry:
# Test system: Enterococcus faecalis
# experimental details: Antibacterial activity against Enterococcus faecalis assessed as growth inhibition by liquid microdilution assay
# Type: functional
Note: values are log10 of MIC expressed in µg/mL.

{"molecular string": "C[C@H]1[C@H](C)CC[C@]2(C(=O)O)CC[C@]3(C)C(=CC[C@@H]4[C@@]5(C)C[C@@H](O)[C@H](O)C(C)(C)[C@@H]5CC[C@]43C)[C@H]12", "endpoint name": "log10(MIC)", "numeric result": 1.51}

Which log10(MIC) value belongs to "CC1(C)CC[C@]2(C(=O)O)CC[C@]3(C)C(=CC[C@@H]4[C@@]5(C)CC[C@H](O)C(C)(C)[C@@H]5CC[C@]43C)[C@@H]2C1" ?
1.20

Which log10(MIC) value belongs to "CC1(C)CC[C@]2(C(=O)O)CC[C@]3(C)C(=CC[C@@H]4[C@@]5(C)C[C@@H](O)[C@H](O)[C@@](C)(CO)[C@@H]5CC[C@]43C)[C@@H]2C1" ?
1.81

* * *

# System: Pseudomonas aeruginosa
# experimental details: Antibacterial activity against Pseudomonas aeruginosa as growth inhibition by liquid microdilution assay
# Format: functional
endpoint name: MIC

// below: answered compounds
{"molecular string": "C[C@H]1[C@H](C)CC[C@]2(C(=O)O)CC[C@]3(C)C(=CC[C@@H]4[C@@]5(C)CC[C@H](O)C(C)(C)[C@@H]5CC[C@]43C)[C@H]12", "result": "> 128 µg/mL"}
{"molecular string": "CC1(C)CC[C@]2(C(=O)O)CC[C@]3(C)C(=CC[C@@H]4[C@@]5(C)CC[C@H](O)C(C)(C)[C@@H]5CC[C@]43C)[C@@H]2C1", "result": "> 128 µg/mL"}
{"molecular string": "CC1(C)CC[C@]2(C(=O)O)CC[C@]3(C)C(=CC[C@@H]4[C@@]5(C)C[C@@H](O)[C@H](O)C(C)(C)[C@@H]5CC[C@]43C)[C@@H]2C1", "result": "> 128 µg/mL"}
{"molecular string": "C[C@H]1[C@H](C)CC[C@]2(C(=O)O)CC[C@]3(C)C(=CC[C@@H]4[C@@]5(C)C[C@@H](O)[C@H](O)[C@@](C)(CO)[C@@H]5CC[C@]43C)[C@H]12", "result": "> 128 µg/mL"}
{"molecular string": "CC(C)(O/N=C(\\C(=O)N[C@@H]1C(=O)N2C(C(=O)[O-])=C(C[n+]3ccccc3)CS[C@H]12)c1csc(N)n1)C(=O)O", "result": "10 µg/mL"}
{"molecular string": "C[C@H]1[C@H](C)CC[C@]2(C(=O)O)CC[C@]3(C)C(=CC[C@@H]4[C@@]5(C)C[C@@H](O)[C@H](O)C(C)(C)[C@@H]5CC[C@]43C)[C@H]12", "result": "> 128 µg/mL"}

Okay, next one:
Which MIC value belongs to "CC1(C)CC[C@]2(C(=O)O)CC[C@]3(C)C(=CC[C@@H]4[C@@]5(C)C[C@@H](O)[C@H](O)[C@@](C)(CO)[C@@H]5CC[C@]43C)[C@@H]2C1" ?
> 128 µg/mL

* * *

# System: Enterococcus faecalis
# experimental details: Antibacterial activity against Enterococcus faecalis assessed as growth inhibition by liquid microdilution assay
# Assay type: functional
MIC by entry:
Enter your answer as a number in µg/mL; do not include the unit.

// below: answered compounds
{"compound": "CN[C@H](CC(C)C)C(=O)N[C@H]1C(=O)N[C@@H](CC(N)=O)C(=O)N[C@H]2C(=O)N[C@H]3C(=O)N[C@H](C(=O)N[C@H](C(=O)O)c4cc(O)cc(O)c4-c4cc3ccc4O)[C@H](O)c3ccc(c(Cl)c3)Oc3cc2cc(c3O[C@@H]2O[C@H](CO)[C@@H](O)[C@H](O)[C@H]2O[C@H]2C[C@](C)(N)[C@H](O)[C@H](C)O2)Oc2ccc(cc2Cl)[C@H]1O [VANCOMYCIN]", "target under test": "Enterococcus faecalis", "MIC [µg/mL]": 2.5}
{"compound": "CC1(C)CC[C@]2(C(=O)O)CC[C@]3(C)C(=CC[C@@H]4[C@@]5(C)C[C@@H](O)[C@H](O)C(C)(C)[C@@H]5CC[C@]43C)[C@@H]2C1 [MASLINIC ACID]", "target under test": "Enterococcus faecalis", "MIC [µg/mL]": 16}
{"compound": "C[C@H]1[C@H](C)CC[C@]2(C(=O)O)CC[C@]3(C)C(=CC[C@@H]4[C@@]5(C)CC[C@H](O)C(C)(C)[C@@H]5CC[C@]43C)[C@H]12 [URSOLIC ACID]", "target under test": "Enterococcus faecalis", "MIC [µg/mL]": 16}

Okay, next one:
Which MIC value belongs to C[C@H]1[C@H](C)CC[C@]2(C(=O)O)CC[C@]3(C)C(=CC[C@@H]4[C@@]5(C)C[C@@H](O)[C@H](O)[C@@](C)(CO)[C@@H]5CC[C@]43C)[C@H]12 [ASIATIC ACID] ?
128
